Quick reference for viability, T/C among some compounds
System: 276233-004-R-J1-PDC complex spheroid viability
Protocol: Anticancer human tumor 276233-004-R-J1-PDC patient-derived colon adenocarcinoma cell line growth inhibition [GQUAD]
Cond: second compound 0.316 µM; first compound 0.0316 µM; stronger effect = lower value
Give just the number in %; leave the unit off.

Below, 4 compounds whose answers are already recorded.
- Compound: "Cn1ncnc1[C@H]1c2n[nH]c(=O)c3cc(F)cc(c23)N[C@@H]1c1ccc(F)cc1 + Cc1cnc(CNC(=O)c2c(=O)c3ccc(N4CCCN(C)CC4)nc3n3c2sc2ccccc23)cn1"
  Measurement Units: "%"
  Measured: 82.8
- Compound: "CCc1c2c(nc3ccc(O)cc13)-c1cc3c(c(=O)n1C2)COC(=O)[C@]3(O)CC + Cc1cnc(CNC(=O)c2c(=O)c3ccc(N4CCCN(C)CC4)nc3n3c2sc2ccccc23)cn1"
  Measurement Units: "%"
  Measured: 84.8
- Compound: "CC(=O)O[C@H]1C(=O)[C@@]2(C)[C@H]([C@H](OC(=O)c3ccccc3)[C@]3(O)C[C@H](OC(=O)[C@H](O)[C@@H](NC(=O)c4ccccc4)c4ccccc4)C(C)=C1C3(C)C)[C@]1(OC(C)=O)CO[C@@H]1C[C@@H]2O + Cc1cnc(CNC(=O)c2c(=O)c3ccc(N4CCCN(C)CC4)nc3n3c2sc2ccccc23)cn1"
  Measurement Units: "%"
  Measured: 97.5
- Compound: "O=C(c1cc(Cc2n[nH]c(=O)c3ccccc23)ccc1F)N1CCN(C(=O)C2CC2)CC1 + CN(C)c1ccc(Nc2c3ccc(NC(=O)CCN4CCCC4)cc3nc3cc(NC(=O)CCN4CCCC4)ccc23)cc1"
  Measurement Units: "%"
  Measured: 75.5

Ask: Can you share its viability, T/C? I mean this compound: Cc1[nH]c2ccccc2c1CCNCc1ccc(/C=C/C(=O)NO)cc1 + Cc1[nH]c2ccc(F)cc2c1-c1nc2c3cccnc3c3ncccc3c2[nH]1
Reply: 64

Ask: Can you share its viability, T/C? I mean this compound: COc1cccc2c1C(=O)c1c(O)c3c(c(O)c1C2=O)CC(O)(C(=O)CO)CC3OC1CC(N)C(O)C(C)O1 (stereo unspecified) + Cc1[nH]c2ccc(F)cc2c1-c1nc2c3cccnc3c3ncccc3c2[nH]1
Reply: 82.6

----------
Tested on: 276233-004-R-J1-PDC complex spheroid viability
Protocol: Anticancer human tumor 276233-004-R-J1-PDC cell line growth inhibition [GQUAD];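 further: spheroids exposed to drugs for seven days; 100% = DMSO vehicle control viability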
Cond: second compound 1 µM; first compound 0.316 µM; stronger effect = lower value
Value Kind: viability, T/C (%)
Give just the number in %; leave the unit off.

Ask: Can you share its viability, T/C? I mean this compound: COc1cc(C2c3cc4c(cc3C(OC3OC5COC(C)OC5C(O)C3O)C3COC(=O)C23)OCO4)cc(OC)c1O (stereo not given) + CN(C)c1ccc(Nc2c3ccc(NC(=O)CCN4CCCC4)cc3nc3cc(NC(=O)CCN4CCCC4)ccc23)cc1
Reply: 58.5

----------
System: 276233-004-R-J1-PDC complex spheroid viability
Protocol: Anticancer human tumor 276233-004-R-J1-PDC cell line growth inhibition [GQUAD];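 further: spheroids exposed to drugs for seven days; 100% = DMSO vehicle control viability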
Cond: second compound 0.316 µM; first compound 0.0999 µM; stronger effect = lower value
Value Kind: viability, T/C (%)
Give just the number in %; leave the unit off.

Below, 5 compounds whose answers are already recorded.
- Compound: "Cc1[nH]c2ccccc2c1CCNCc1ccc(/C=C/C(=O)NO)cc1 + Cc1[nH]c2ccc(F)cc2c1-c1nc2c3cccnc3c3ncccc3c2[nH]1"
  Test System: "276233-004-R-J1-PDC complex spheroid viability"
  Measurement Units: "%"
  Measured: 26.4
- Compound: "Cn1ncnc1[C@H]1c2n[nH]c(=O)c3cc(F)cc(c23)N[C@@H]1c1ccc(F)cc1 + Cc1cnc(CNC(=O)c2c(=O)c3ccc(N4CCCN(C)CC4)nc3n3c2sc2ccccc23)cn1"
  Test System: "276233-004-R-J1-PDC complex spheroid viability"
  Measurement Units: "%"
  Measured: 80.8
- Compound: "CCc1c2c(nc3ccc(O)cc13)-c1cc3c(c(=O)n1C2)COC(=O)[C@]3(O)CC + Cc1cnc(CNC(=O)c2c(=O)c3ccc(N4CCCN(C)CC4)nc3n3c2sc2ccccc23)cn1"
  Test System: "276233-004-R-J1-PDC complex spheroid viability"
  Measurement Units: "%"
  Measured: 85.8
- Compound: "Cn1ncnc1[C@H]1c2n[nH]c(=O)c3cc(F)cc(c23)N[C@@H]1c1ccc(F)cc1 + CN(C)c1ccc(Nc2c3ccc(NC(=O)CCN4CCCC4)cc3nc3cc(NC(=O)CCN4CCCC4)ccc23)cc1"
  Test System: "276233-004-R-J1-PDC complex spheroid viability"
  Measurement Units: "%"
  Measured: 61.9
- Compound: "Cn1ncnc1[C@H]1c2n[nH]c(=O)c3cc(F)cc(c23)N[C@@H]1c1ccc(F)cc1 + Cc1[nH]c2ccc(F)cc2c1-c1nc2c3cccnc3c3ncccc3c2[nH]1"
  Test System: "276233-004-R-J1-PDC complex spheroid viability"
  Measurement Units: "%"
  Measured: 100

Ask: Can you share its viability, T/C? I mean this compound: CCc1c2c(nc3ccc(O)cc13)-c1cc3c(c(=O)n1C2)COC(=O)[C@]3(O)CC + CN(C)c1ccc(Nc2c3ccc(NC(=O)CCN4CCCC4)cc3nc3cc(NC(=O)CCN4CCCC4)ccc23)cc1
Reply: 79.5
